test system: Escherichia coli TOP10; assay: shrunken log2 fold change of peptide-encoding DNA abundance (4.5 h post-induction vs induction); higher = less antimicrobial activity (less host growth inhibition); details: time post-induction: 4.5 h; library: site-saturation at positions 5, 18, 19, 20;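 also: peptides expressed intracellularly from a pBAD plasmid library in pooled LB shake-flask culture, induced with 0.3% L-arabinose, DNA abundance read by NGS, three biological replicates, DESeq2 with apeglm shrinkage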
measure: shrunken log2 fold change

sequence.text: RRIRCRPPRLPRPRPRPAPCPRP
measure: shrunken log2 fold change
observed.measurement: 0.122
--
sequence.text: RRIRLRPPRLPRPRPRPMHLPRP
measure: shrunken log2 fold change
observed.measurement: -0.0248
--
sequence.text: RRIRSRPPRLPRPRPRPGWSPRP
measure: shrunken log2 fold change
observed.measurement: 0.334
--
sequence.text: RRIRQRPPRLPRPRPRPHIMPRP
measure: shrunken log2 fold change
observed.measurement: -0.669
--
sequence.text: RRIRDRPPRLPRPRPRPKRFPRP
measure: shrunken log2 fold change
observed.measurement: -0.017
--
sequence.text: RRIRKRPPRLPRPRPRPCRLPRP
measure: shrunken log2 fold change
observed.measurement: -0.298
--
sequence.text: RRIRERPPRLPRPRPRPSTYPRP
measure: shrunken log2 fold change
observed.measurement: -0.263
--
sequence.text: RRIRYRPPRLPRPRPRPVRWPRP
measure: shrunken log2 fold change
observed.measurement: 0.164
--
sequence.text: RRIRERPPRLPRPRPRPPWAPRP
measure: shrunken log2 fold change
observed.measurement: 0.176
--
sequence.text: RRIRERPPRLPRPRPRPGWKPRP
measure: shrunken log2 fold change
observed.measurement: 0.015
--
sequence.text: RRIRKRPPRLPRPRPRPLKHPRP
measure: shrunken log2 fold change
observed.measurement: 0.0711
--
sequence.text: RRIRHRPPRLPRPRPRPEHQPRP
measure: shrunken log2 fold change
observed.measurement: -0.291
--
sequence.text: RRIRDRPPRLPRPRPRPELMPRP
measure: shrunken log2 fold change
observed.measurement: 1.68
--
sequence.text: RRIRWRPPRLPRPRPRPHECPRP
measure: shrunken log2 fold change
observed.measurement: -0.0602
--
sequence.text: RRIRLRPPRLPRPRPRPSYCPRP
measure: shrunken log2 fold change
observed.measurement: -0.413
--
sequence.text: RRIRERPPRLPRPRPRPYHPPRP
measure: shrunken log2 fold change
observed.measurement: -0.248
--
sequence.text: RRIRSRPPRLPRPRPRPCPDPRP
measure: shrunken log2 fold change
observed.measurement: -0.388
--
sequence.text: RRIRNRPPRLPRPRPRPHSNPRP
measure: shrunken log2 fold change
observed.measurement: -0.341
--
sequence.text: RRIRLRPPRLPRPRPRPRTWPRP
measure: shrunken log2 fold change
observed.measurement: 0.111
--
sequence.text: RRIRWRPPRLPRPRPRPFCPPRP
measure: shrunken log2 fold change
observed.measurement: -0.318
--
sequence.text: RRIRMRPPRLPRPRPRPHICPRP
measure: shrunken log2 fold change
observed.measurement: -0.0377
--
sequence.text: RRIRGRPPRLPRPRPRPKSSPRP
measure: shrunken log2 fold change
observed.measurement: 0.508
--
sequence.text: RRIRYRPPRLPRPRPRPQVCPRP
measure: shrunken log2 fold change
observed.measurement: -0.00133
--
sequence.text: RRIRSRPPRLPRPRPRPIAIPRP
measure: shrunken log2 fold change
observed.measurement: -0.0732
--
sequence.text: RRIRIRPPRLPRPRPRPTTTPRP
measure: shrunken log2 fold change
observed.measurement: -0.00987
--
sequence.text: RRIRTRPPRLPRPRPRPKENPRP
measure: shrunken log2 fold change
observed.measurement: 0.15
--
sequence.text: RRIRFRPPRLPRPRPRPSTPPRP
measure: shrunken log2 fold change
observed.measurement: -0.463
--
sequence.text: RRIRERPPRLPRPRPRPYYHPRP
measure: shrunken log2 fold change
observed.measurement: -1.58
--
sequence.text: RRIRYRPPRLPRPRPRPQGVPRP
measure: shrunken log2 fold change
observed.measurement: -0.464
--
sequence.text: RRIRTRPPRLPRPRPRPELMPRP
measure: shrunken log2 fold change
observed.measurement: 0.0498
--
sequence.text: RRIRRRPPRLPRPRPRPVYRPRP
measure: shrunken log2 fold change
observed.measurement: -0.235
--
sequence.text: RRIRRRPPRLPRPRPRPIRHPRP
measure: shrunken log2 fold change
observed.measurement: 0.307
--
sequence.text: RRIRKRPPRLPRPRPRPTGAPRP
measure: shrunken log2 fold change
observed.measurement: 1.09
--
sequence.text: RRIRHRPPRLPRPRPRPSNSPRP
measure: shrunken log2 fold change
observed.measurement: -0.798
--
sequence.text: RRIRYRPPRLPRPRPRPHDFPRP
measure: shrunken log2 fold change
observed.measurement: -0.167
--
sequence.text: RRIRSRPPRLPRPRPRPNWTPRP
measure: shrunken log2 fold change
observed.measurement: -0.000246
--
sequence.text: RRIRVRPPRLPRPRPRPVRCPRP
measure: shrunken log2 fold change
observed.measurement: 0.145
--
sequence.text: RRIRYRPPRLPRPRPRPLVNPRP
measure: shrunken log2 fold change
observed.measurement: -1.09
--
sequence.text: RRIRTRPPRLPRPRPRPGHNPRP
measure: shrunken log2 fold change
observed.measurement: -0.184
--
sequence.text: RRIRFRPPRLPRPRPRPWAKPRP
measure: shrunken log2 fold change
observed.measurement: -0.0227
--
sequence.text: RRIRFRPPRLPRPRPRPMEHPRP
measure: shrunken log2 fold change
observed.measurement: -0.416
--
sequence.text: RRIRERPPRLPRPRPRPNMRPRP
measure: shrunken log2 fold change
observed.measurement: 0.131
--
sequence.text: RRIRQRPPRLPRPRPRPHSQPRP
measure: shrunken log2 fold change
observed.measurement: 0.0419
--
sequence.text: RRIRQRPPRLPRPRPRPCVFPRP
measure: shrunken log2 fold change
observed.measurement: -0.049
--
sequence.text: RRIRARPPRLPRPRPRPNETPRP
measure: shrunken log2 fold change
observed.measurement: 0.0696
--
sequence.text: RRIRIRPPRLPRPRPRPCPVPRP
measure: shrunken log2 fold change
observed.measurement: -0.523
--
sequence.text: RRIRWRPPRLPRPRPRPNRWPRP
measure: shrunken log2 fold change
observed.measurement: 0.218
--
sequence.text: RRIRDRPPRLPRPRPRPEHIPRP
measure: shrunken log2 fold change
observed.measurement: -0.193
--
sequence.text: RRIRYRPPRLPRPRPRPCLEPRP
measure: shrunken log2 fold change
observed.measurement: 0.139
--
sequence.text: RRIRVRPPRLPRPRPRPLSWPRP
measure: shrunken log2 fold change
observed.measurement: 0.0819
